- target: Ecdysone receptor (Spodoptera frugiperda, UniProt Q8MWR1+Q8MWR2)
- Sequence (Q8MWR2 whole entry): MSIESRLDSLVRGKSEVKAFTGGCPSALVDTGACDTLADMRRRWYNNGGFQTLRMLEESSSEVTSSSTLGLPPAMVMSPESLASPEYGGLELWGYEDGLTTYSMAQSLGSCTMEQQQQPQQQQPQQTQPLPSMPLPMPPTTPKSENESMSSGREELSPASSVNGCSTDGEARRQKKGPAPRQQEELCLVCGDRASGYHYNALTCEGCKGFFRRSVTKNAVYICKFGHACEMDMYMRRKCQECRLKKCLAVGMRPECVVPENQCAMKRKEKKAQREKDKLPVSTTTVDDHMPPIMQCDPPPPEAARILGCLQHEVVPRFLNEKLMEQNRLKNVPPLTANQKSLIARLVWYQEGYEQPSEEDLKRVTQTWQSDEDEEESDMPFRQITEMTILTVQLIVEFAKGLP
- Sequence (Q8MWR1 whole entry): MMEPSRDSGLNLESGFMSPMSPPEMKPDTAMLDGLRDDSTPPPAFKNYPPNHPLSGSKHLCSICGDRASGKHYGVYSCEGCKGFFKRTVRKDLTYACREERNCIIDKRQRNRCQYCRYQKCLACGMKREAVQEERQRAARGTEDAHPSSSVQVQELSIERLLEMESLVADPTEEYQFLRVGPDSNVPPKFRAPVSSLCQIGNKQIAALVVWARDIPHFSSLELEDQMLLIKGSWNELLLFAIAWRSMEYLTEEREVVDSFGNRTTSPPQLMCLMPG
- assay notes: Binding affinity to Spodoptera frugiperda (fall armyworm) EcR
observable: pIC50
On this scale, pIC50 is minus log10 of a concentration expressed in M (mol/L).

stdin: Need pIC50 of C[C@H](C[C@@H](O)[C@](C)(O)[C@H]1CC[C@@]2(O)C3=CC(=O)[C@@H]4C[C@@H](O)[C@@H](O)C[C@]4(C)[C@H]3CC[C@]12C)C(C)(C)O , thanks.
stdout: 6.41

stdin: Need pIC50 of CC(C)(O)CC[C@@H](O)[C@](C)(O)[C@H]1CC[C@@]2(O)C3=CC(=O)[C@@H]4C[C@@H](O)[C@@H](O)C[C@]4(C)[C@H]3CC[C@]12C [20-HYDROXYECDYSONE] , thanks.
stdout: 6.78
